Please go through the items and note down their Ki.
Target: Prothrombin (Homo sapiens)
Assay: Binding affinity to human thrombin
Number in nM, nothing else.

Value (Ki, Prothrombin (Homo sapiens)) for record CN[C@H](Cc1ccccc1)C(=O)N1CCC[C@H]1C(=O)N[C@@H](CCCNC(=N)N)C(=O)c1nc2ccccc2[nH]1 = 9.6

Value (Ki, Prothrombin (Homo sapiens)) for record N=C(N)NCCC[C@@H]1NC(=O)C2CCCN2C(=O)[C@@H](NCCc2ccccc2)CNC(=O)/C=C/[C@H](Cc2ccc(O)cc2)NC(=O)[C@@H](Cc2ccccc2)NC(=O)C1=O (stereo partly specified) = 1.5

Value (Ki, Prothrombin (Homo sapiens)) for record N=C(N)NCCC[C@@H]1NC(=O)C2CCCN2C(=O)[C@@H](Cc2ccccc2)NC(=O)CCCCCCCNC(=O)C1=O (stereo partly specified) = 24

Value (Ki, Prothrombin (Homo sapiens)) for record CN[C@H](Cc1ccccc1)C(=O)N1CCC[C@H]1C(=O)N[C@@H](CCCN=C(N)N)C(=O)c1nc2ccccc2s1 = 0.2

Value (Ki, Prothrombin (Homo sapiens)) for record CN[C@@H](C(=O)N1CCC[C@H]1C(=O)N[C@@H](CCCN=C(N)N)C(=O)c1nc2ccccc2s1)C(c1ccccc1)c1ccccc1 = 0.00065

Value (Ki, Prothrombin (Homo sapiens)) for record CN[C@H](Cc1ccccc1)C(=O)N1CCC[C@H]1C(=O)N[C@@H](CCCN=C(N)N)C(=O)c1nccn1C = 200

----------
Recorded below: pIC50, system Cathepsin G (Homo sapiens).
# pIC50 = -log10(concentration in molar units)

Briefly, pIC50 measured for CN(Cc1ccccc1)C(=O)c1cc2ccccc2cc1C(=O)C(c1cccc2ccccc12)P(=O)(O)O (configuration not stated) : 6.00

Briefly, pIC50 measured for CN(CC(=O)NCCc1ccccc1)C(=O)c1cc2ccccc2cc1C(=O)C(c1cccc2ccccc12)P(=O)(O)O (configuration not stated) : 5.89
